Experiment: Absorption and emission spectra of dyes in different solvents
Assay type: physicochemical
Design: scale not given here
Conditions: solvent DMSO
Would you mind telling me the reported ε2 (molar extinction coefficient) of each entry?
Answer with a number only, understood to be in cm^−1M.

The recorded ε2 (molar extinction coefficient) for "CCN1/C(=C/C=C/C(=C/C2=[N+](CC)c3ccccc3C2(C)C)N(Cc2ccccc2)Cc2ccccc2)C(C)(C)c2ccccc21" is 2.2

Entry "CCN1/C(=C/C=C/C(=C/C2=[N+](CC)c3ccccc3C2(C)C)N(CCO)CCO)C(C)(C)c2ccccc21" ; ε2 (molar extinction coefficient) = 2.1

Entry "CCN1/C(=C/C=C/C(=C/C2=[N+](CC)c3ccccc3C2(C)C)NCc2ccccc2)C(C)(C)c2ccccc21" — recorded ε2 (molar extinction coefficient) = 2.3

// field: ε2 (molar extinction coefficient); key: "CCN1/C(=C/C=C/C(=C/C2=[N+](CC)c3ccccc3C2(C)C)NCCO)C(C)(C)c2ccccc21" ; value = 2.3
